TESTED TARGET: mouse ACVR2A (mouse, UniProt P27038 20-135, limits assumed); also: test concentration or dose not given here
Sequence (P27038 20-135 limits assumed): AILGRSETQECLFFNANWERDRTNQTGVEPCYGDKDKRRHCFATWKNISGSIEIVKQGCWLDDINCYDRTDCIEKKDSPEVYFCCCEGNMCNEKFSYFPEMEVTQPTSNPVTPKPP
METHOD: ELISA
Form field: optical density (one value per entry).
Give the value, in units of OD, as a plain number.

In: # lookup: optical density of 376_E03 (antibody, V domains shown, VH/VL only) VH: EVQLLESGGGLVQPGGSLRLSCAASGFTFSSYGMNWVRQAPGKGLEWVANINYNGGYTGYADSVKGRFTISRDNSKNTLYLQMNSLRAEDTAVYYCARSANWHDTALDYWGQGTLVTVSS VL: DIQMTQSPSSLSASVGDRVTITCRASQSILSYVNWYQQKPGKAPKLVIYAATSLASGVPSRFSGSGSGTDFTLTISSLQPEDFATYYCQQSYDLPLTFGGGTKVEIK
Out: 3.74

In: # lookup: optical density of 374_E08 (antibody, V domains shown, VH/VL only) VH: EVQLLESGGGLVQPGGSLRLSCAASGFTFSSYGMNWVRQAPGKGLEWVAGINYNGGYKSYADSVKGRFTISRDNSKNTLYLQMNSLRAEDTAVYYCARSANWHDTALDYWGQGTLVTVSS VL: DIQMTQSPSSLSASVGDRVTITCRASQSILSYLNWYQQKPGKAPKLLIYAATSRHSGVPSRFSGSGSGTDFTLTISSLQPEDFATYYCQQSYDLPLTFGGGTKVEIK
Out: 3.52

In: # lookup: optical density of 366_H05 (antibody, V domains shown, VH/VL only) VH: EVQLLESGGGLVQPGGSLRLSCAASGFTFDSYGMHWVRQAPGKGLEWVASINYNGGYTSYADSVKGRFTISRDNSKNTLYLQMNSLRAEDTAVYYCARSATWHDTHLDYWGQGTLVTVSS VL: DIQMTQSPSSLSASVGDRVTITCRASQSILSYVNWYQQKPGKAPKLLIYAATSLASGVPSRFSGSGSGTDFTLTISSLQPEDFATYYCQQSYDLPLTFGGGTKVEIK
Out: 2.74

In: # lookup: optical density of 374_H09 (antibody, V domains shown, VH/VL only) VH: EVQLLESGGGLVQPGGSLRLSCAASGFTFSSYSMNWVRQAPGKGLEWVANINYNSGYKSYADSVKGRFTISRDNSKNTLYLQMNSLRAEDTAVYYCARSANWHDTALDYWGQGTLVTVSS VL: DIQMTQSPSSLSASVGDRVTITCRASQSILSYLNWYQQKPGKAPKLVIYAVTSLASGVPSRFSGSGSGTDFTLTISSLQPEDFATYYCQQSYDLPLTFGGGTKVEIK
Out: 3.26

Attention now shifts to the item below.
In: # lookup: optical density of 370_G12 (antibody, V domains shown, VH/VL only) VH: EVQLLESGGGLVQPGGSLRLSCAASGFTFSSYSMNWVRQAPGKGLEWVAGINYNGGYKGYADSVKGRFTISRDNSKNTLYLQMNSLRAEDTAVYYCARSATWHDTALDYWGQGTLVTVSS VL: DIQMTQSPSSLSASVGDRVTITCRASQSIITYLNWYQQKPGKAPKLLIYAATSLASGVPSRFSGSGSGTDFTLTISSLQPEDFATYYCQQSDESPLTFGGGTKVEIK
Out: 1.6
